System: primary human fibroblasts derived from IPF patients (LL29 cells) treated with TGF-β1
Test Description: Inhibition of the fibrotic process: αSMA staining in TGF-β1 treated LL29 fibroblasts
Assay type: cell-based
Cond: % cells positive for αSMA, TGF-β1 20 ng/mL, 4 days
Measured Property: EC50 (nM)
Report only the number, with the unit nM understood.

What does the data say about its EC50? Entry: `CC(C)(F)CN1CCC(n2cc(-c3ccc4[nH]nc(C(=O)Nc5ccc(OC(F)F)cc5)c4c3)cn2)CC1` 9

---

Test system: IL-6
Test Description: IL-6 inhibition in LPS-stimulated human PBMCs (HTRF)
Assay type: cell-based
Cond: PBMC, IL-6, huPBMCs, LPS 50 ng/mL, 22 hours
Measured Property: EC50 (nM)
Report only the number, with the unit nM understood.

// lookup EC50 | system=IL-6 | key= C[C@H]1C[C@H](NC(=O)c2n[nH]c3ccc(-c4cnn(C)c4)cc23)CCN1CC(C)(C)F [Compound 44] 1030
